Sourced from PubChem BioAssay

# assay_explanation: calcium flux activation in mu-opioid HEK293 cells, confirmation, counter-screen for TRPC4 activator project, cell-based, HEK293 mu-opioid receptor line (AID 449723);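 note: counter screen cells carry the mu-opioid receptor alone and lack TRPC4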; for activation: reference of the scale not given here
# protocol_conditions: Fluo-4 calcium fluorescence, at 10 µM
Calls of active or inactive are those of the source.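 Rule for the calls: active = hit in primary screen, with calcium signal over 5 SD above buffer well mean in both duplicates; inactive = the rest.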
Hi! Could you answer with just one of these? 1.0 = active, 0.0 = inactive

Take a look at these entries with their results.
| molecule | label_class |
| --- | --- |
| CCc1ccc(C(CNc2nc(C(F)(F)F)nc3ccccc23)N(C)C)cc1 (stereo not given) | 0.0 |
| CCc1cccc(CC)c1NC(=S)NCC(c1cccnc1)N(C)C (stereo not given) | 0.0 |
| CN(C)C(CNC(=O)C1CCN(S(=O)(=O)c2cccc(C(F)(F)F)c2)CC1)c1ccccc1 (stereo not given) | 0.0 |
| CCN1CCN(c2ccc(S(=O)(=O)N3CCCCC3)cc2NC(=O)COc2ccccc2)CC1 | 0.0 |
| CCN1/C(=C\c2ccc3ccccc3[n+]2CC)Sc2cc(C)ccc21 | 1.0 |

Q: Just curious, what result did COc1ccc(C2Nc3ccccc3C(=O)N2Cc2ccco2)cc1COc1ccc(NC(C)=O)cc1 (stereo not given) get here?
Result: 0.0

Q: Just curious, what result did CC(=O)Nc1ccc(CN2CCCC(C(=O)c3cccc(C(F)(F)F)c3)C2)cc1 (stereo not given) get here?
Result: 0.0

Q: Just curious, what result did `CCCCN(CC)CCNC(=O)c1cc2c(C)nc3ccccc3c2o1` get here?
Result: 0.0

Q: Just curious, what result did CCOC(=O)C1(CC2CCCCO2)CCN(Cc2c(C)cc(C)cc2-n2cccn2)CC1 (stereo not given) get here?
Result: 0.0

Q: Just curious, what result did Cc1ccc(C2N(c3ccc(Cl)c(Cl)c3)C(=O)C3CCCN32)o1 (stereo not given) get here?
Result: 0.0
